Tested on: RARb homodimer (NR concentration 270 nM)
test.method.notes: PBM binding z-score (relative to random genomic background probes); higher = stronger binding; sequences stand for … in GC…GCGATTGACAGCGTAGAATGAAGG
Would you mind sorting the entries by PBM binding z-score according to these classes? low (below 0.9), intermediate (0.9 to below 3), high (3 or more)

Worked cases, answers included:
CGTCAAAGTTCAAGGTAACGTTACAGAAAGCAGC high
AGAACGTGGGCAATGAGTTGATAGCACGGGTGGC low
ATCTCTAGGTAACACGTTCAGTGAAAGAGAGGAC low
CCTTACGGGTCACTCCAGGTTATAGTATCGGAGT high
CCTATTTGGTCAAGGTCACACACGCTATAGGTAC high

Note: place this sequence into its band. Item: ATCTCTGGGTAAGACTCAGTTCAGTGAAGAACGC
low

Note: place this sequence into its band. Item: CCGAGTAGGTTATGGGGCATTCGGGCAACGGTGA
intermediate

Note: place this sequence into its band. Item: TCTCGGAGGACACGAAAGGTCCGAGCTCGACATC
intermediate

Note: place this sequence into its band. Item: CCAGAAAGGTGAGAAGGTAACTCAGCCTCGATTA
intermediate

Note: place this sequence into its band. Item: CTCGAAAGGTCGGTTGAGGTGCGTATACGGATAA
intermediate
